Where do the numbers come from? From patent US20110195911A1.

Biological target: Insulin-like growth factor 1 receptor (IGF1R) (UniProt P08069 31-1367, limits assumed)
Sequence (P08069 31-1367 limits assumed): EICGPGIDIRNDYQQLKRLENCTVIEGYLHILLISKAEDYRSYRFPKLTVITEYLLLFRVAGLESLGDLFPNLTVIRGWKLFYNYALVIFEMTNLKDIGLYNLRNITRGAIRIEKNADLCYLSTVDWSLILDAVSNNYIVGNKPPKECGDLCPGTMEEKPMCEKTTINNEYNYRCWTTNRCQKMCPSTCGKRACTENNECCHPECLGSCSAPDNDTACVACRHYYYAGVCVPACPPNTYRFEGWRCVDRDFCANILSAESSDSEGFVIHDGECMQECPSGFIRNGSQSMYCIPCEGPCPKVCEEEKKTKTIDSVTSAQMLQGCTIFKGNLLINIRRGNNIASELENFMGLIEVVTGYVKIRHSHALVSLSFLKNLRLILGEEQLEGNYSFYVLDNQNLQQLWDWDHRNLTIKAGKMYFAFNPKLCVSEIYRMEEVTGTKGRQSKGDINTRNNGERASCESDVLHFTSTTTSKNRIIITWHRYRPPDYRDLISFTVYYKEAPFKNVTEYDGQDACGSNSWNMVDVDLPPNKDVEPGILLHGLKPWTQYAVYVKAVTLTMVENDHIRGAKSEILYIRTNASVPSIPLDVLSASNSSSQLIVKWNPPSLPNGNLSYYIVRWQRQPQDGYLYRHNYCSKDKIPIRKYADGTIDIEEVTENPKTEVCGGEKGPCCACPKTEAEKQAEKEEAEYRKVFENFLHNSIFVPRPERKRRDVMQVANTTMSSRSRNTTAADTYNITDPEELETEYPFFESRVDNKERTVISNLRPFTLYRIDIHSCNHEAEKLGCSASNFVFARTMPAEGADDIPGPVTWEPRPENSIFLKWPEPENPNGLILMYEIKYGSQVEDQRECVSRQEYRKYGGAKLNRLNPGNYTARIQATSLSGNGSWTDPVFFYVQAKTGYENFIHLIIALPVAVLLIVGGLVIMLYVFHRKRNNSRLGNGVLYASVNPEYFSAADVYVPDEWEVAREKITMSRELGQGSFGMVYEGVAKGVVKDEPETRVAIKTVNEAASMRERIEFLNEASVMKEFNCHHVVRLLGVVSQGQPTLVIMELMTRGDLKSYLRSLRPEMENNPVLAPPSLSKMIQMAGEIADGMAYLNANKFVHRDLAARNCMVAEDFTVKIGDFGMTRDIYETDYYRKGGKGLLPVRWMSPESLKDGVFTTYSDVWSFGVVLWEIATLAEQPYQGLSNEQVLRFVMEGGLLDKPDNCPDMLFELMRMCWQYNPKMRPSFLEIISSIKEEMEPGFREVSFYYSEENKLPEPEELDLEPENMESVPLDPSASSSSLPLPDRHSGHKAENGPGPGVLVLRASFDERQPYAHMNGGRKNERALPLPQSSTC
Test: cell-based or functional assay
The star is where a group is joined. Palmitoyl = CCCCCCCCCCCCCCCC(=O)*
measured-endpoint: GI50 (µM), MTT assay, MCF-7 cells

• Palmitoyl-NNSRLGNGVLY-NH2 (SMILES CCCCCCCCCCCCCCCC(=O)N[C@@H](CC(N)=O)C(=O)N[C@@H](CC(N)=O)C(=O)N[C@@H](CO)C(=O)N[C@@H](CCCNC(=N)N)C(=O)N[C@@H](CC(C)C)C(=O)NCC(=O)N[C@@H](CC(N)=O)C(=O)NCC(=O)N[C@H](C(=O)N[C@@H](CC(C)C)C(=O)N[C@@H](Cc1ccc(O)cc1)C(N)=O)C(C)C) [peptide 15 (Pal-NNSRLGNGVLY-NH2)] = 0.1
• Palmitoyl-RNNSRLGNGVLYA-NH2 (not fully specified; printed as Pal-RNNSRLGNGVLYA-NH2) [peptide 33 (Pal-RNNSRLGNGVLYA-NH2)] = 0.1
• Palmitoyl-RNNSRLGNGVLY-NH2 (SMILES CCCCCCCCCCCCCCCC(=O)N[C@@H](CCCNC(=N)N)C(=O)N[C@@H](CC(N)=O)C(=O)N[C@@H](CC(N)=O)C(=O)N[C@@H](CO)C(=O)N[C@@H](CCCNC(=N)N)C(=O)N[C@@H](CC(C)C)C(=O)NCC(=O)N[C@@H](CC(N)=O)C(=O)NCC(=O)N[C@H](C(=O)N[C@@H](CC(C)C)C(=O)N[C@@H](Cc1ccc(O)cc1)C(N)=O)C(C)C) [peptide 16 (Pal-RNNSRLGNGVLY-NH2)] = 0.07
